- Target entity: HLA-B*08:01
- Assay name: IEDB peptide-MHC binding, purified MHC/competitive/fluorescence; bounds were set here for any values at or beyond the usual limits of such assays
- Measurement setup: source organism: Vaccinia virus WR
Measurement label: pIC50
Answers are plain numbers, as −log10 of the molar value.

Task: HLA-B*08:01 / pIC50 / `LPKRSVMLI` : value?
Output: 4.89

* * *

- Target entity: HLA-B*46:01
- Assay name: IEDB peptide-MHC binding, purified MHC/competitive/fluorescence; filed as Kd, often an IC50 or EC50 that approximates it; bounds were set here for any values at or beyond the usual limits of such assays
- Measurement setup: source organism: Tetraodon nigroviridis
Measurement label: Kd

Task: Which Kd reading was recorded for the sequence `NTFKFGVIY` ?
Output: ≥ 20 µM

* * *

- Target entity: HLA-B*08:01
- Assay name: IEDB peptide-MHC binding, purified MHC/competitive/fluorescence; bounds were set here for any values at or beyond the usual limits of such assays
- Measurement setup: source organism: Homo sapiens
pIC50: −log10 of the molar value.
Measurement label: pIC50

Task: Which pIC50 reading was recorded for the sequence `MVRVLTVIKEY` ?
Output: ≤ 4.70

* * *

- Target entity: HLA-B*57:01
- Assay name: IEDB peptide-MHC binding, purified MHC/direct/fluorescence; filed as Kd, often an IC50 or EC50 that approximates it; bounds were set here for any values at or beyond the usual limits of such assays
- Measurement setup: source organism: Camelpox virus M-96
pKd: −log10 of the molar value.
Measurement label: pKd

Task: Which pKd reading was recorded for the sequence `EYYFRNEVF` ?
Output: ≤ 4.70

* * *

- Target entity: HLA-B*57:01
- Assay name: IEDB peptide-MHC binding, purified MHC/direct/fluorescence; filed as Kd, often an IC50 or EC50 that approximates it; bounds were set here for any values at or beyond the usual limits of such assays
- Measurement setup: source organism: Listeria monocytogenes FSL N3-165
pKd: −log10 of the molar value.
Measurement label: pKd

Task: Which pKd reading was recorded for the sequence `WTRPRYIEI` ?
Output: ≤ 4.70

* * *

- Target entity: HLA-A*02:12
- Assay name: IEDB peptide-MHC binding, purified MHC/direct/fluorescence; filed as Kd, often an IC50 or EC50 that approximates it; bounds were set here for any values at or beyond the usual limits of such assays
- Measurement setup: source organism: Mycobacterium tuberculosis str. Haarlem
Measurement label: pKd
Give bare numbers, as −log10 of the molar value.

Task: Which pKd reading was recorded for the sequence `RVACRDVEV` ?
Output: 7.49

* * *

- Target entity: HLA-B*08:01
- Assay name: IEDB peptide-MHC binding, purified MHC/direct/fluorescence; filed as Kd, often an IC50 or EC50 that approximates it; bounds were set here for any values at or beyond the usual limits of such assays
- Measurement setup: source organism: Escherichia coli O6
Measurement label: Kd

Task: Which Kd reading was recorded for the sequence `TPVWHVTSA` ?
Output: ≥ 20 µM

* * *

- Target entity: HLA-A*02:06
- Assay name: IEDB peptide-MHC binding, purified MHC/competitive/radioactivity; filed as Kd, often an IC50 or EC50 that approximates it; bounds were set here for any values at or beyond the usual limits of such assays
- Measurement setup: source organism: Hepatitis C virus (isolate 1)
Measurement label: pKd
Numbers only, as −log10 of the molar value.

Task: Which pKd reading was recorded for the sequence `ATDALMTGY` ?
Output: 5.25

* * *

- Target entity: HLA-A*03:01
- Assay name: IEDB peptide-MHC binding, purified MHC/competitive/fluorescence; filed as Kd, often an IC50 or EC50 that approximates it; bounds were set here for any values at or beyond the usual limits of such assays
- Measurement setup: source organism: Robiginitalea biformata HTCC2501
Measurement label: Kd (µM)
One number for each entry, in µM.

Task: HLA-A*03:01 / Kd / `PLAKGLFHK` : value?
Output: 6.78

* * *

- Target entity: HLA-A*26:01
- Assay name: IEDB peptide-MHC binding, purified MHC/direct/fluorescence; filed as Kd, often an IC50 or EC50 that approximates it; bounds were set here for any values at or beyond the usual limits of such assays
- Measurement setup: source organism: Yersinia pestis
Measurement label: Kd

- Construct sequence: "MQLQLNCAY"
  Kd: "≥ 20 µM"

Moving on to the next sequence.
Task: Which Kd reading was recorded for the sequence `RQLESRLGY` ?
Output: ≥ 20 µM

* * *

- Target entity: HLA-A*03:01
- Assay name: IEDB peptide-MHC binding, purified MHC/competitive/radioactivity; filed as Kd, often an IC50 or EC50 that approximates it; bounds were set here for any values at or beyond the usual limits of such assays
- Measurement setup: source organism: Vaccinia virus WR
Measurement label: pKd
One number for each entry, as −log10 of the molar value.

- Construct sequence: "IAEYIAGLK"
  Endpoint value: 7.20
- Construct sequence: "NIKPSKENR"
  Endpoint value: 5.13
- Construct sequence: "ISIIVLFQR"
  Endpoint value: 6.16
- Construct sequence: "LSCIRNASK"
  Endpoint value: 6.32
- Construct sequence: "YALINLVQYR"
  Endpoint value: 4.93
- Construct sequence: "EAVYGNIKHK"
  Endpoint value: 4.73
- Construct sequence: "KQYIVATLMK"
  Endpoint value: 8.25
- Construct sequence: "IPYLRNYMVI"
  Endpoint value: 6.80
- Construct sequence: "SAGAGVLDK"
  Endpoint value: 6.61
- Construct sequence: "ISQFSYKELY"
  Endpoint value: 5.24

The following sequences each have a reported value; give each one's pKd.
1. KSIENKHQRR
2. LFSTSAADIK
3. DVSLIIEYK
4. TIANSNIIK
5. LLMHLVSLY
6. IQLDEKSSIK
7. KTYIDVNEEY
8. ELTTVFIKY

Output:
4.95
4.71
4.79
6.18
8.57
8.90
5.74
6.57

The following sequences each have a reported value; give each one's pKd.
1. LIDTTSRELK
2. LVTRKCPQK
3. KSCICYGSY
4. LITLILSNK
5. RSSPPIPMSR
6. VTTKDYFSFK
7. GLCAHILLY

Output:
1. 7.41
2. 7.20
3. 6.36
4. 7.68
5. 8.06
6. 7.58
7. 7.85

The following sequences each have a reported value; give each one's pKd.
1. NTKSDIDVIK
2. YLSDSDNIK
3. SMRYQSLIPR

Output:
1: 5.08; 2: 5.59; 3: 8.87

The following sequences each have a reported value; give each one's pKd.
1. LLTDTIESAK
2. LTDTIESAK
3. YTYDRVDIYY
4. YSGLTPEQK
5. TVHKLTQDEK

Output:
1: 6.72; 2: 5.97; 3: 7.01; 4: 4.73; 5: 4.91

The following sequences each have a reported value; give each one's pKd.
1. ILNKIVQLPK
2. NSTCYVFGLY

Output:
1: 7.76; 2: 6.79

* * *

- Target entity: HLA-A*01:01
- Assay name: IEDB peptide-MHC binding, purified MHC/competitive/radioactivity; filed as Kd, often an IC50 or EC50 that approximates it; bounds were set here for any values at or beyond the usual limits of such assays
- Measurement setup: source organism: Mammarenavirus guanaritoense
Would you kindly list pKd for each of these sequences?
Give bare numbers, as −log10 of the molar value.

- Construct sequence: "PTMEIEDQEY"
  pKd: 7.76

Task: Which pKd reading was recorded for the sequence `SSSPTILDNY` ?
Output: 7.65

* * *

- Target entity: HLA-B*40:01
- Assay name: IEDB peptide-MHC binding, purified MHC/competitive/radioactivity; filed as Kd, often an IC50 or EC50 that approximates it; bounds were set here for any values at or beyond the usual limits of such assays
- Measurement setup: source organism: Hepatitis C virus (isolate 1)
pKd: −log10 of the molar value.
Measurement label: pKd

Task: Which pKd reading was recorded for the sequence `ATDALMTGY` ?
Output: ≤ 4.12

* * *

- Target entity: HLA-C*03:03
- Assay name: IEDB peptide-MHC binding, purified MHC/direct/fluorescence; filed as Kd, often an IC50 or EC50 that approximates it; bounds were set here for any values at or beyond the usual limits of such assays
- Measurement setup: source organism: Mycobacterium tuberculosis C
Measurement label: Kd (nM)
Give bare numbers, in nM.

Task: Which Kd reading was recorded for the sequence `YVFYDGPPF` ?
Output: 10

* * *

- Target entity: HLA-B*58:01
- Assay name: IEDB peptide-MHC binding, purified MHC/direct/fluorescence; filed as Kd, often an IC50 or EC50 that approximates it; bounds were set here for any values at or beyond the usual limits of such assays
- Measurement setup: source organism: Vibrio cholerae
Measurement label: Kd

Task: HLA-B*58:01 / Kd / `RPRIRLSAP` : value?
Output: ≥ 20 µM

* * *

- Target entity: HLA-B*45:06
- Assay name: IEDB peptide-MHC binding, purified MHC/competitive/fluorescence; filed as Kd, often an IC50 or EC50 that approximates it; bounds were set here for any values at or beyond the usual limits of such assays
- Measurement setup: source organism: Campylobacter jejuni subsp. jejuni NCTC 11168 = ATCC 700819
Measurement label: Kd

Task: Which Kd reading was recorded for the sequence `YMKKRYEEF` ?
Output: ≥ 5 µM
